These data points were gathered from ChEMBL document CHEMBL2375229.

Tested on: Radical scavenging activity
Test: Antioxidant activity of the compound assessed as DPPH free radical scavenging activity at 187.5 uM after 60 mins by spectrophotometric analysis relative to control
Assay type: functional
quantity_measured: inhibition (%)
# value in %; strip the unit string

For orientation, consider the following solved cases.
CCn1c(-c2cccs2)n[nH]c1=S :: 49.6
CCn1c(-c2cccs2)nn(CN2CCC(C)CC2)c1=S :: 65.2
S=c1n(CN2CCOCC2)nc(-c2cccs2)n1-c1ccccc1 :: 79.2

API: the following record is the query input.
API: value(readout= inhibition, system= Radical scavenging activity, query= C=CCn1c(-c2cccs2)n[nH]c1=S )
47.4
